- target_desc: human Edg-1(S1P1) (Homo sapiens)
- Construct: expressed in transfected cells; host or cells: HEK-293
- experiment_description: Cell system binding test: inhibition of [3H]-S1P binding to Edg-1(S1P1) gene transferred HEK-293 cells
- condition_info: 10 μM compound, [3H]-S1P 10 nM, read-out: Cell system binding test % inhibition (10 μM)
Label T for high-side inhibition at 10 µM (at or above 90%) and F for low-side inhibition at 10 µM (below it).

input: Reported inhibition at 10 µM reaches at least 90% for CCn1c(OC)nnc1[C@@H](C)NS(=O)(=O)c1cccc(Cl)c1F [Compound 322] ?
output: T

input: Assess whether reported inhibition at 10 µM for CCn1c(OC)nnc1[C@@H](C)NS(=O)(=O)c1cccc(C(=O)c2ccncc2)c1 [Compound 357] sits at 90% or higher.
output: F

input: Given the entry CCOc1nnc([C@@H](C)NS(=O)(=O)c2cccc(Cl)c2)n1CC [Compound 445] , answer whether its inhibition at 10 µM meets or surpasses 90%.
output: T

input: # bool: inhibition at 10 µM of CCn1c(OC)nnc1[C@@H](C)NS(=O)(=O)Cc1ccccn1 [Compound 323] >= 90%
output: F

input: Check the entry CCn1c(OCC2CCCCC2)nnc1[C@@H](C)NS(=O)(=O)c1ccc(Cl)cc1 [Compound 378] : does inhibition at 10 µM equal or exceed 90%?
output: T

input: Quick check, inhibition at 10 µM >= 90%? CCOc1nnc([C@@H](C)NS(=O)(=O)c2cccc(C(F)(F)F)c2)n1CC [Compound 414]
output: T

input: Reported inhibition at 10 µM reaches at least 90% for CCOc1nnc([C@@H](C)NS(=O)(=O)c2ccc(Cl)c(Cl)c2)n1CC [Compound 401] ?
output: T

input: Kindly determine if inhibition at 10 µM recorded for CCn1c(OC)nnc1[C@@H](C)NS(=O)(=O)c1ccc(Br)c(C(F)(F)F)c1 [Compound 372] is above or exactly 90%.
output: T

input: Hi, just wondering whether CCOc1nnc([C@@H](C)NS(=O)(=O)c2ccc(OC)cc2)n1CC [Compound 420] shows inhibition at 10 µM of 90% or higher.
output: T

input: Can CCn1c(SCCc2ccc(Cl)cc2)nnc1[C@@H](C)NS(=O)(=O)c1ccc(Cl)cc1 [Compound 19] be said to have inhibition at 10 µM at or above 90%?
output: F

input: Is it the case that CCn1c(OC)nnc1[C@@H](C)NS(=O)(=O)c1ccc(O)cc1 [Compound 422] has inhibition at 10 µM reaching or exceeding 90%?
output: F

input: Determine whether measured inhibition at 10 µM meets or exceeds 90% for CCn1c(OC)nnc1[C@@H](C)NS(=O)(=O)CC(c1ccccc1)c1ccccc1 [Compound 297]
output: F

input: # bool: inhibition at 10 µM of CCn1c(OC)nnc1[C@@H](C)NS(=O)(=O)c1ccc(CCC(=O)OC)cc1 [Compound 301] >= 90%
output: F

input: Could you please find out whether CCn1c(OC)nnc1[C@@H](C)NS(=O)(=O)c1ccc2ccccc2c1 [Compound 230] has inhibition at 10 µM that meets 90% or exceeds it?
output: T

input: Can CCn1c(OC)nnc1[C@@H](C)NS(=O)(=O)c1cc(C)sc1C [Compound 367] be said to have inhibition at 10 µM at or above 90%?
output: T

input: Does inhibition at 10 µM meet or surpass 90% for CCn1c(OC)nnc1[C@@H](C)NS(=O)(=O)c1ccccc1[N+](=O)[O-] [Compound 231] ?
output: T

input: Identify whether the reported inhibition at 10 µM of the following molecule is 90% or greater: CCn1c(SCC(N)=O)nnc1[C@@H](C)NS(=O)(=O)c1ccc(Cl)cc1 [Compound 83]
output: F

input: Does inhibition at 10 µM meet or surpass 90% for C=CCSc1nnc(C(Cc2ccccc2)NS(=O)(=O)c2ccc(Cl)cc2)n1C (stereo not drawn) [Compound 135] ?
output: F

input: Determine whether measured inhibition at 10 µM meets or exceeds 90% for CCn1c(OC)nnc1[C@@H](C)NS(=O)(=O)c1cc(F)cc(F)c1 [Compound 311]
output: T

input: Is the recorded value of inhibition at 10 µM equal to or greater than 90% for this molecule? CCn1c(OC)nnc1[C@@H](C)NS(=O)(=O)c1cc(Cl)ccc1F [Compound 316]
output: T

input: I'd appreciate it if you could say whether CCn1c(SCCN2CCCC2=O)nnc1[C@@H](C)NS(=O)(=O)c1ccc(Cl)cc1 [Compound 78] has inhibition at 10 µM at least equal to 90%.
output: F

* * *

- target_desc: human Edg-1(S1P1) (Homo sapiens, UniProt P21453)
- Construct: expressed in transfected cells; host or cells: HEK-293
- Sequence (P21453 whole entry): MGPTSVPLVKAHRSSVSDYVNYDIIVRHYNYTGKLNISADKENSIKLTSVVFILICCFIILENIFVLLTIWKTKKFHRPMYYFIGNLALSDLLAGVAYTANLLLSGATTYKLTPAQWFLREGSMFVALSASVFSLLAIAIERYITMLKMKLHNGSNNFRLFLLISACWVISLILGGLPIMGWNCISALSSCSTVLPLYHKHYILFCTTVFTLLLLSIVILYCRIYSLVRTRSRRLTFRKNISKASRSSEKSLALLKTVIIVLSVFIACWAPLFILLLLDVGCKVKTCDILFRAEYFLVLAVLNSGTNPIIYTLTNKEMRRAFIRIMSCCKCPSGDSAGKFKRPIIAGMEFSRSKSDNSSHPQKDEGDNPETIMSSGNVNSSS
- experiment_description: Cell system binding test: inhibition of [3H]-S1P binding to Edg-1(S1P1) gene transferred HEK-293 cells
- condition_info: 10 μM compound, [3H]-S1P 10 nM, read-out: Cell system binding test % inhibition (10 μM)
So I've got a bunch of compounds here, and I need their inhibition at 10 µM values.
Unit % implied. Number only.

input: May I ask what inhibition at 10 µM has been recorded for C=CCSc1nnc([C@@H](Cc2ccccc2)NS(=O)(=O)c2ccc(Cl)cc2)n1CCN1CCOCC1 [Compound 153] ?
output: 26.8

input: What inhibition at 10 µM value was documented for this compound, CCc1ccc(S(=O)(=O)N[C@H](C)c2nnc(OC)n2CC)cc1 [Compound 222] ?
output: 92.9

input: What does the record list as inhibition at 10 µM for CCn1c(OC)nnc1[C@@H](C)NS(=O)(=O)c1ccc(C(C)(C)CC)cc1 [Compound 271] ?
output: 89.6

input: For CCn1c(OCC(C)C)nnc1[C@@H](C)NS(=O)(=O)c1ccc(Cl)cc1 [Compound 389] , what is its reported inhibition at 10 µM?
output: 96.3

input: I have this compound here, CCn1c(OC)nnc1[C@@H](C)NS(=O)(=O)c1ccc(Cl)cc1 [Compound 185] , and I need its recorded inhibition at 10 µM.
output: 87.4

input: Consider the compound CCn1c(OC)nnc1[C@@H](C)NS(=O)(=O)c1ccc(F)c(F)c1 [Compound 287] and give its measured inhibition at 10 µM.
output: 100

input: Can you look up the measured inhibition at 10 µM of CCn1c(OC)nnc1[C@@H](C)NS(=O)(=O)c1ccc2nsnc2c1 [Compound 341] for me?
output: 99.4

input: Look at this compound and give its reported inhibition at 10 µM. CCOc1nnc([C@@H](C)NS(=O)(=O)c2ccc(Br)cc2)n1CC [Compound 409]
output: 88.1

input: # query: inhibition at 10 µM of entry CCn1c(OC)nnc1[C@@H](C)NS(=O)(=O)c1ccccc1C(=O)OC [Compound 259]
output: 86.8

input: Item CCCCc1ccc(S(=O)(=O)N[C@H](C)c2nnc(OC)n2CC)cc1 [Compound 207] has what recorded inhibition at 10 µM?
output: 95.8

input: GET /values?readout=inhibition at 10 µM&item= C=CCSc1nnc([C@@H](C)N(C)S(=O)(=O)c2ccc(Cl)cc2)n1CC [Compound 99]
output: 75.8

input: Fill in the blank: the reported inhibition at 10 µM of CCn1c(SCCN2CCNC2=O)nnc1[C@@H](C)NS(=O)(=O)c1ccc(Cl)cc1 [Compound 73] is ____.
output: 93.9

input: What value of inhibition at 10 µM has been recorded for this entry: C=CCSc1nnc([C@@H](CC)NS(=O)(=O)c2ccc(Cl)cc2)n1C [Compound 106]
output: 86.9

input: GET /values?readout=inhibition at 10 µM&item= CCn1c(SCCC23CC4CC(CC(C4)C2)C3)nnc1[C@@H](C)NS(=O)(=O)c1ccc(Cl)cc1 [Compound 86]
output: 93.4

input: Which measured inhibition at 10 µM value corresponds to CCn1c(SCCc2ccncc2)nnc1[C@@H](C)NS(=O)(=O)c1ccc(Cl)cc1 [Compound 69] ?
output: 89.5

input: # get_value(readout='inhibition at 10 µM', item= CCn1c(SC(C)c2ccccc2)nnc1[C@@H](C)NS(=O)(=O)c1ccc(Cl)cc1 (stereo partly drawn) [Compound 41] )
output: 87.3

input: Would you kindly share the measured inhibition at 10 µM for CCn1c(SCCOC)nnc1[C@@H](C)NS(=O)(=O)c1ccc(Cl)cc1 [Compound 16] ?
output: 92.1

input: Give the measured inhibition at 10 µM of CCn1c(SCc2ccncc2)nnc1[C@@H](C)NS(=O)(=O)c1ccc(Cl)cc1 [Compound 64] .
output: 91.3

* * *

- target_desc: human Edg-1(S1P1) (Homo sapiens, UniProt P21453)
- Construct: expressed in transfected cells; host or cells: HEK-293
- experiment_description: Membrane system binding test: inhibition of [33P]-S1P binding to the membrane fraction of Edg-1(S1P1) gene transferred HEK-293 cells
- condition_info: 10 μM compound; [33P]-S1P 0.1 nM; membrane fraction of Edg-1(S1P1) gene transferred HEK-293 cells; read-out: Membrane system binding test % inhibition (10 μM)
Each record's class is read off its inhibition at 10 µM using these ranges: bin A: < 80%; bin B: ≥ 80% and < 90%; bin C: ≥ 90%

input: Class (by measured inhibition at 10 µM) for CCn1c(SCc2ccc(SC)cc2)nnc1[C@@H](C)NS(=O)(=O)c1ccc(Cl)cc1
output: bin C

input: Assign a bin to CCn1c(OCCCCCO)nnc1[C@@H](C)NS(=O)(=O)c1ccc(Cl)cc1
output: bin B

input: Classify this compound: CCn1c(OC)nnc1[C@@H](C)NS(=O)(=O)c1cc(F)c(F)c(F)c1
output: bin C

input: Class label required: CCOc1nnc([C@@H](C)NS(=O)(=O)c2ccc(Br)s2)n1CC
output: bin B

input: GET /class?item= CCn1c(OC)nnc1[C@@H](C)NS(=O)(=O)CCc1cccc2ccccc12
output: bin A

input: Each compound maps to one class by inhibition at 10 µM. Which class for CCCc1ccc(S(=O)(=O)N[C@H](C)c2nnc(OC)n2CC)cc1 ?
output: bin A
